Attribute: pIC50
- System: dopamine uptake
- assayMethodText: Biogenic amine uptake inhibition, rat brain synaptosomes, tritiated dopamine
- Type: biochemical, Sprague-Dawley derived rats
- settings: tritiated amine 0.1 μM, 37° C., 4 minutes
Counter-ions that a name gives are not always drawn.
Note on units: pIC50 is unitless, being -log10 of a concentration expressed in mol/L.

compound: CCN(CCc1cccs1)CC1CCCc2cc(OC)ccc21 (stereo not shown) [Example 41, hydrochloride]
observedProperty: pIC50
val: 5.22

compound: c1ccc(C2CCN(CC3CCCc4c3ccc3c4OCO3)C2)cc1 (stereo not shown) [Example 143a]
observedProperty: pIC50
val: 5.06

compound: CCN(CCc1cccs1)CC1CCCc2c(OC)cccc21 (stereo not shown) [Example 73, hydrochloride]
observedProperty: pIC50
val: 5.07

compound: COc1ccc2c(c1)CCCC2CN(C)CCc1cccs1 (stereo not shown)
observedProperty: pIC50
val: 5.19

compound: CN(C)CCCN1c2ccccc2CCc2ccccc21 [Imipramine, reference compound]
observedProperty: pIC50
val: 3.90

compound: CCN(CCc1ccsc1)CC1CCCc2cc(OC)ccc21 (stereo not shown) [Example 44, hydrochloride]
observedProperty: pIC50
val: 5.06

**Query** Please list pIC50 recorded for the compound CN(CCc1cccs1)CC1CCCc2c1ccc1c2OCCO1 (stereo not shown) [Example 30, hydrochloride]
**Result** 5.09
